System: HAB1
method.notes: Yeast two hybrid of pBD-PYR1 site saturation mutants with pACT-HAB1 on 10 μM ABA, β-galactosidase staining
Assay type: cell-based, Arabidopsis
Design: key: x: Mutations in PYR1 that disrupt ABA-induced binding to PYR1 to HAB1
setup.conditions: S. cerevisiae Y190, 10 μM ABA; dead = lack of visible staining in comparison to wild type control
Excerpt: To systematically identify mutations in PYR1 that disrupt its binding to HAB1, we utilized a collection of saturating mutations that contain all possible single amino acid substitutions in 24 conserved interface residues involved in binding HAB1, which was previously constructed for the purpose of engineering constitutively active ABA receptor variants (Mosquna et al., 2011). […]
readout.kind: Mutations in PYR1 that disrupt ABA-induced binding to PYR1 to HAB1

| molecule | observed.result |
| --- | --- |
| S85Y: PYR1 mutant (protein, UniProt O49686 1-191, looked up, variant S85Y) Abscisic acid receptor PYR1: MPSELTPEERSELKNSIAEFHTYQLDPGSCSSLHAQRIHAPPELVWSIVRRFDKPQTYKHFIKSCSVEQNFEMRVGCTRDVIVIYGLPANTSTERLDILDDERRVTGFSIIGGEHRLTNYKSVTTVHRFEKENRIWTVVLESYVVDMPEGNSEDDTRMFADTVVKLNLQKLATVAEAMARNSGDGSGSQVT | x |
| P88M: PYR1 mutant (protein, UniProt O49686 1-191, looked up, variant P88M) Abscisic acid receptor PYR1: MPSELTPEERSELKNSIAEFHTYQLDPGSCSSLHAQRIHAPPELVWSIVRRFDKPQTYKHFIKSCSVEQNFEMRVGCTRDVIVISGLMANTSTERLDILDDERRVTGFSIIGGEHRLTNYKSVTTVHRFEKENRIWTVVLESYVVDMPEGNSEDDTRMFADTVVKLNLQKLATVAEAMARNSGDGSGSQVT | x |
| N151C: PYR1 mutant (protein, UniProt O49686 1-191, looked up, variant N151C) Abscisic acid receptor PYR1: MPSELTPEERSELKNSIAEFHTYQLDPGSCSSLHAQRIHAPPELVWSIVRRFDKPQTYKHFIKSCSVEQNFEMRVGCTRDVIVISGLPANTSTERLDILDDERRVTGFSIIGGEHRLTNYKSVTTVHRFEKENRIWTVVLESYVVDMPEGCSEDDTRMFADTVVKLNLQKLATVAEAMARNSGDGSGSQVT | x |
